Assay: Liver microsomal stability
Type: in vitro ADME, mouse
Details: liver microsomes, 40 min incubation
So basically, if Percentage of compound remaining in solution after 40 min incubation comes in under 60% it's YES, and if it's 60% or more it's NO.

Here's an entry: C=CC(C)C1CCC2C3C(O)C(CC)C4CC(O)CCC4(C)C3CCC12C (centres unmarked) . Is its Percentage of compound remaining in solution after 40 min incubation below 60%?
YES

Here's an entry: CC[C@H]1[C@@H](O)[C@@H]2[C@H](CC[C@]3(C)[C@@H]([C@H](C)CCC(=O)O)CC[C@@H]23)[C@@]2(C)CC[C@@H](O)C[C@@H]12 [6-ECDCA, 6-ethylchenodeoxycholic acid, reference compound] . Is its Percentage of compound remaining in solution after 40 min incubation below 60%?
YES

Here's an entry: CCC(C)C1CCC2C3C(O)C(CC)C4CC(O)CCC4(C)C3CCC12C (centres unmarked) . Is its Percentage of compound remaining in solution after 40 min incubation below 60%?
NO

Here's an entry: CCC1C(O)C2C3CCC(C(C)CO)C3(C)CCC2C2(C)CCCCC12 (centres unmarked) . Is its Percentage of compound remaining in solution after 40 min incubation below 60%?
NO

----------
Molecular target: human GPBAR1 (Homo sapiens)
Construct: expressed in transfected cells; host or cells: HEK293T
Sequence (Q8TDU6 whole entry): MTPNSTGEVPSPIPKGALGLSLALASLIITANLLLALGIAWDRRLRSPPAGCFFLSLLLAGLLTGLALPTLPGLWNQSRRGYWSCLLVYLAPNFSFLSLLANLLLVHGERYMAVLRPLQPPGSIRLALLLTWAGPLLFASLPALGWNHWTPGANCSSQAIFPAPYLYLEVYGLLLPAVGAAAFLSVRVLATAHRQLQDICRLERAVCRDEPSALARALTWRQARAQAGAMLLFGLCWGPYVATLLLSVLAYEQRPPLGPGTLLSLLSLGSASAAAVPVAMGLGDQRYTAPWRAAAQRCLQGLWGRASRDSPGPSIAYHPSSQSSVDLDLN
Assay: GPBAR1 transactivation (CRE luciferase reporter) assay in HEK293T cells
Format: cell-based
Conditions: maximum efficacy of compound (10 µM) relative to 6-ECDCA (1 µM) set as 100, CRE transactivation
Mark NOT MET for GPBAR1 Eff (%) vs 6-ECDCA values under 200%, and MET for everything at or above.

Is the recorded value of GPBAR1 Eff (%) vs 6-ECDCA equal to or greater than 200% for this compound? CCC(C)C1CCC2C3C(O)C(CC)C4CC(O)CCC4(C)C3CCC12C (stereo not drawn)
MET

Is the recorded value of GPBAR1 Eff (%) vs 6-ECDCA equal to or greater than 200% for this compound? C=CC(C)C1CCC2C3C(O)C(CC)C4CCCCC4(C)C3CCC12C (stereo not drawn)
NOT MET

Is the recorded value of GPBAR1 Eff (%) vs 6-ECDCA equal to or greater than 200% for this compound? CCC1C(O)C2C3CCC(C(C)CO)C3(C)CCC2C2(C)CCC(O)CC12 (stereo not drawn)
MET

Is the recorded value of GPBAR1 Eff (%) vs 6-ECDCA equal to or greater than 200% for this compound? CCC1C(O)C2C3CCC(C(C)CO)C3(C)CCC2C2(C)CCCCC12 (stereo not drawn)
NOT MET

Is the recorded value of GPBAR1 Eff (%) vs 6-ECDCA equal to or greater than 200% for this compound? CCC(C)C1CCC2C3C(O)C(CC)C4CCCCC4(C)C3CCC12C (stereo not drawn)
NOT MET

Is the recorded value of GPBAR1 Eff (%) vs 6-ECDCA equal to or greater than 200% for this compound? C=CC(C)C1CCC2C3C(O)C(CC)C4CC(O)CCC4(C)C3CCC12C (stereo not drawn)
MET

----------
Target: human FXR (Homo sapiens, UniProt Q96RI1)
Construct: expressed in transfected cells; host or cells: HepG2
Sequence (Q96RI1 whole entry): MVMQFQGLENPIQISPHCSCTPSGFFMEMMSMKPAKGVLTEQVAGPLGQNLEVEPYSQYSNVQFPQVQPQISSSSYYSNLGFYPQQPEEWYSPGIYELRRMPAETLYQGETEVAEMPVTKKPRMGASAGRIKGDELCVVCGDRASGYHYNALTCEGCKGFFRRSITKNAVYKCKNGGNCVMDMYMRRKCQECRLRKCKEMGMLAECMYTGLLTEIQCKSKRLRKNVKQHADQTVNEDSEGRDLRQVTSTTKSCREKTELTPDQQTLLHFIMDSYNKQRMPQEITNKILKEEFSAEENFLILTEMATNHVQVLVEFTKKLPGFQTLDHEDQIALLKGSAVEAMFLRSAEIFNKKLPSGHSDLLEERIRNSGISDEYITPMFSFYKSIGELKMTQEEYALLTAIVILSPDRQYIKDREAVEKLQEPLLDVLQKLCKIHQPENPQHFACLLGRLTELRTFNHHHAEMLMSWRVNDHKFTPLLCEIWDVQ
Sequence (P19793 whole entry partner): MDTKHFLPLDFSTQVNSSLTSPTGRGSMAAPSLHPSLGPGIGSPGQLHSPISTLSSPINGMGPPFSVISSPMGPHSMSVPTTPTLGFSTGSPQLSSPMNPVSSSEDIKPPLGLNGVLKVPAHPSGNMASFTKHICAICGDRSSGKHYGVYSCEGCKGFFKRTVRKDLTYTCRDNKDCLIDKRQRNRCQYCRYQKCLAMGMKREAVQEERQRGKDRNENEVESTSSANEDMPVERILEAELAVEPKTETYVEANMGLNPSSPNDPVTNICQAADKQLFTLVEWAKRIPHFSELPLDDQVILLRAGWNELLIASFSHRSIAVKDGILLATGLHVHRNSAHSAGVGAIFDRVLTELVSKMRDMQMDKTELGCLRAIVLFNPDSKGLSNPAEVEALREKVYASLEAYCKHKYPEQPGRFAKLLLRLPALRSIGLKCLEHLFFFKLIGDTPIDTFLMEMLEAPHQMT
Test: FXR transactivation luciferase reporter assay in HepG2 cells
Format: cell-based
Settings: maximum efficacy of compound (10 µM) relative to CDCA (10 μM) set as 100%; FRE transactivation, HepG2 cells
Assignment: determine reported FXR Eff (%) vs CDCA for the given compounds.
# value in %; strip the unit string

Under human FXR (Homo sapiens, UniProt Q96RI1): report FXR Eff (%) vs CDCA of CCC1C(O)C2C3CCC(C(C)CO)C3(C)CCC2C2(C)CCCCC12 (stereo not drawn) .
185

Under human FXR (Homo sapiens, UniProt Q96RI1): report FXR Eff (%) vs CDCA of CCC1C(O)C2C3CCC(C(C)CO)C3(C)CCC2C2(C)CCC(O)CC12 (stereo not drawn) .
257

Under human FXR (Homo sapiens, UniProt Q96RI1): report FXR Eff (%) vs CDCA of C=CC(C)C1CCC2C3C(O)C(CC)C4CC(O)CCC4(C)C3CCC12C (stereo not drawn) .
252

Under human FXR (Homo sapiens, UniProt Q96RI1): report FXR Eff (%) vs CDCA of CCC(C)C1CCC2C3C(O)C(CC)C4CCCCC4(C)C3CCC12C (stereo not drawn) .
14

Under human FXR (Homo sapiens, UniProt Q96RI1): report FXR Eff (%) vs CDCA of C=CC(C)C1CCC2C3C(O)C(CC)C4CCCCC4(C)C3CCC12C (stereo not drawn) .
17

Under human FXR (Homo sapiens, UniProt Q96RI1): report FXR Eff (%) vs CDCA of CCC(C)C1CCC2C3C(O)C(CC)C4CC(O)CCC4(C)C3CCC12C (stereo not drawn) .
249
